settings: in ethanol, 299.15 K
REPORTED ENDPOINT: solubility (mole fraction)
Would you mind answering with just the numeric figure?

Query: So what does the record say about solubility (mole fraction) for CCCCCCCCCCCCCCCc1cccc(O)c1 ?
Response: 0.252

---

conditions: in tetrachloromethane, 298.36 K
REPORTED ENDPOINT: solubility (mole fraction)
Would you mind answering with just the numeric figure?

Query: So what does the record say about solubility (mole fraction) for CCCCCCCCCCCCCCCc1cccc(O)c1 ?
Response: 0.21

---

conditions: in ethyl acetate, 297.3 K
REPORTED ENDPOINT: solubility (mole fraction)
Would you mind answering with just the numeric figure?

Query: So what does the record say about solubility (mole fraction) for CCCCCCCCCCCCCCCc1cccc(O)c1 ?
Response: 0.323
